Readings of ADCC Max. % lysis for the listed binders
# test.system: T1, Human CD38 expressed on cells (Daudi, Raji, Jurkat, human PBMC/T cells, Tregs, HEK-293T transfectants) (human, UniProt P28907 1-300)
# T1 sequence: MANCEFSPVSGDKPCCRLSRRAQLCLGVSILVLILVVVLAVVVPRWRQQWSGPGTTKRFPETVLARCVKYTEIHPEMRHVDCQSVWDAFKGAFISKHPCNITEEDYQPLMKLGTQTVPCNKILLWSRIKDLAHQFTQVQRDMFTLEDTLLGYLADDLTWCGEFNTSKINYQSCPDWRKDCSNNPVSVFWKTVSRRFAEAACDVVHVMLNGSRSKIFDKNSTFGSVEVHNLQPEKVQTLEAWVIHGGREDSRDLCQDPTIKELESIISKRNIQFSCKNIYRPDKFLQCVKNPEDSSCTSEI
# experiment.description: cell-based or functional assay
Entry rule: numbers only, all in %.

Query: For the binder aCD38-b-348-m2 (antibody, IgG1, V domains shown) VH: QLQLQESGPGLVKPSETLSLTCTVSGGSISSSDYYWGWIRQPPGKGLEWIGSIYYSGSTYYNPSLKSRVTISVDTSKNQFSLKLSSVTAADTAVYYCARGQYSSGWYAYPFDMWGQGTMVTVSS VL: EIVLTQSPGTLSLSPGERATLSCRASQSVRSSYLAWYQQKPGQAPRLLIYGASSRATGIPDRFSGSGSGTDFTLTISRLEPEDFAVYYCQQDSNVYTFGGGTKVEIK , what ADCC Max. % lysis is on record?
Response: 44

Now for a further binder.
Query: For the binder aCD38-b-348 (human IgG1) (antibody, V domains shown, First made as IgG in yeast) VH: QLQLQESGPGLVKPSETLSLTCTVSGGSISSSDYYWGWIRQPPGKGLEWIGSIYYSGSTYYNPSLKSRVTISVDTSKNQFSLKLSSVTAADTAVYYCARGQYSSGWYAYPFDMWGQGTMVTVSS VL: EIVLTQSPGTLSLSPGERATLSCRASQSVRSSYLAWYQQKPGQAPRLLIYGASSRATGIPDRFSGSGSGTDFTLTISRLEPEDFAVYYCQQDGNVYTFGGGTKVEIK , what ADCC Max. % lysis is on record?
Response: 44
